# EXPERIMENTAL TARGET: Rac GTPase-activating protein 1 (Homo sapiens) (UniProt Q9H0H5)
# Sequence (Q9H0H5 whole entry, looked up): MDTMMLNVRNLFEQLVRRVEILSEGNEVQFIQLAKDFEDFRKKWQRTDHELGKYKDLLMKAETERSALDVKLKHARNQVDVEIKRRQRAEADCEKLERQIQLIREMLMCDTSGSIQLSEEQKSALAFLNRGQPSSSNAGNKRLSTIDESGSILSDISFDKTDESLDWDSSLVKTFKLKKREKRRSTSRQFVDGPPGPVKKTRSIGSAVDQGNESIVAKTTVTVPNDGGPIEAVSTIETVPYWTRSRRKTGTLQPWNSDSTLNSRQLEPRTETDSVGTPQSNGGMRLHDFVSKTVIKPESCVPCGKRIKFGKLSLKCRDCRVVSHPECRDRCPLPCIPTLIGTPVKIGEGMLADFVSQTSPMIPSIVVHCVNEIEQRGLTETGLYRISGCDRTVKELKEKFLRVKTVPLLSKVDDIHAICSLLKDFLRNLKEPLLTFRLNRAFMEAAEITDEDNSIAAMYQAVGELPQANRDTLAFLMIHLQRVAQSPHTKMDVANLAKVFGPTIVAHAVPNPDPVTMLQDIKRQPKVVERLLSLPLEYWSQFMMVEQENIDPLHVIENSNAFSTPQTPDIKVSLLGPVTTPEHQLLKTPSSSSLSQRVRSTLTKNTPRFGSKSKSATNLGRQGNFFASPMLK
# METHOD SUMMARY: blockers of MgcRacGAP-driven Rac1 GTP hydrolysis – biochemical, ADP Hunter fluorescence, primary and confirmatory, confirmation (AID 624330);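 note: fluorescence reports GDP produced by GAP-driven GTP hydrolysis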
# CONDITION LABEL: MgcRacGAP-stimulated Rac1 GTP hydrolysis, at 30 µM, stronger effect = higher value, GST-tagged Rac1 F28L mutant substrate
Hit rate of the full screen: of about 340,000 compounds, about 2,100 (0.62%) were called active. Only a sample is shown. Results with a measured potency or affinity are listed apart.
MEASURE NAME: inhibition (%)
Supply the numeric figure in %, leaving out any unit text.

> print(dat)
                                   compound  measured.number
1            Cc1sc(NC(=O)CCC(=O)O)c(C#N)c1C             4.82
2              Cc1cn2c(-c3ccc(Cl)cc3)nnc2s1            -3.08
3  Cc1ccc(S(=O)(=O)N/N=C/c2ccc(O)c(O)c2)cc1[N+](=O)[O-]             30.2
4           Nc1cccc(C(=O)Nc2cccc3ncccc23)c1            -7.17
5  O=C1NCC(NC(=O)C(F)(F)F)c2cc3c(cc21)OCO3 (stereo unspecified)            -0.85
6       COc1ccc2nc(C)cc(N/N=C/c3ccccc3)c2c1             19.7
7       Cc1ccc2nc(C)cc(N/N=C/c3ccccc3O)c2c1             9.12
8  CCOC(=O)C1(Cc2cccc(OC)c2)CCN(CC(O)CO)CC1 (stereo unspecified)            -0.09

Entry `C#CCO[C@@H]1C[C@H](n2ccc(NC(=O)c3ccccc3)nc2=O)O[C@@H]1CO` ; inhibition = 7.23

Kindly note the recorded inhibition for `O=C1CCc2cc(S(=O)(=O)Nc3cccc(F)c3)cc3c2N1CC3` , which is 4.84

So, `CN(C(=O)CSc1nc2scc(-c3ccccc3)c2c(=O)[nH]1)c1ccccc1` ? Its inhibition was 6.96

inhibition recorded for this compound, `COc1cc(/C=N/NC(=O)c2cccc([N+](=O)[O-])c2)cc(OC)c1O` , is 6.29
